system under test: T1, CD137-hisFc fusion protein (Sino Biological Cat 10041-H03H) (human, UniProt Q07011 24-186)
T1 construct: Bought; also called recombinant human CD137 (fused with human Fc and His tag); not shown: His tag and human Fc
experiment summary: BLI Octet, Fab;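 also: fab fragments expressed in E. coli, binding to human CD137 measured on Octet RED96, kinetics fitted with a 1:1 Langmuir model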
measurement name: koff (s⁻¹)
Numbers only here, please. The scale is s⁻¹.

The following binders have reported results that may help.
Fab 5360 (Fab, V domains shown, Fab from E. coli; also called VH28/VL28) VH: EVQLVESGGGLVQPGGSLRLSCAASGYSITSGHYWNWIRQAPGKGLEWVSGISGDGSSTYYADSVKGRFTISRDNSKNTLYLQLNSLRAEDTAVYYCARGGSDAVLGDWFAYWGQGTLVTVSS VL: DIQLTQSPSSLSASVGDRVTITCRASQSISSYLAWYQQKPGKAPKLLIYDASNLETGVPSRFSGSGSGTDFTLTISSLQPEDFATYYCQQGYSTWTFGQGTKVEIKR    0.0029
Fab 5300 (Fab, V domains shown, Fab from E. coli; also called VH12/VL12) VH: EVQLVESGGGLVQPGGSLRLSCAASGYTFSNYWIHWVRQAPGKGLEWVSYISGDGDTTYYADSVKGRFTISRDNSKNTLYLQLNSLRAEDTAVYYCAREGSTTVAGDWFAYWGQGTLVTVSS VL: DIQLTQSPSSLSASVGDRVTITCRASQGIGSFLGWYQQKPGKAPKLLIYDASSLESGVPSRFSGSGSGTDFTLTISSLQPEDFATYYCQQYYSLVTFGQGTKVEIKR    0.0091
Fab 5314 (Fab, V domains shown, Fab from E. coli; also called VH16/VL16) VH: EVQLVESGGGLVQPGGSLRLSCAASGFSLSTGGVAVGWIRQAPGKGLEWLALIDWAGDKSYSTSLKSRLTISRDNSKNTLYLQLNSLRAEDTAVYYCARGGSDTVLGDWFAYWGQGTLVTVSS VL: DIQLTQSPSSLSASVGDRVTITCRASQGVSPYLAWYQQKPGKAPKLLIYDASNRATGIPSRFSGSGSGTDFTLTISSLQPEDFATYYCQQGYSTWTFGQGTKVEIKR    0.0018

If you can, please state the reported koff value of Fab 5353 (Fab, V domains shown, Fab from E. coli; also called VH26/VL26) VH: EVQLVESGGGLVQPGGSLRLSCAASGFTFSSYWIHWVRQAPGKGLEWVSVISGDGDTTYYADSVKGRFTISRDNSKNTLYLQLNSLRAEDTAVYYCARSRGLVLDAFDYWGQGTLVTVSS VL: DIQLTQSPSSLSASVGDRVTITCRASQSVSGRFLAWYQQKPGKAPKLLIYDASSLESGVPSRFSGSGSGTDFTLTISSLQPEDFATYYCQQYDYWPPYTFGQGTKVEIKR .
0.006

If you can, please state the reported koff value of Fab 5404 (Fab, V domains shown, Fab from E. coli; also called VH34/VL34) VH: EVQLVESGGGLVQPGGSLRLSCAASGYSISSGYHWAWIRQAPGKGLEWIGEIYHSGSTYYSPSLKSRVTISRDNSKNTLYLQLNSLRAEDTAVYYCARSPYYYGVFDYWGQGTLVTVSS VL: DIQLTQSPSSLSASVGDRVTITCSASSRVGSVYWYQQKPGKAPKLLIYDASNLETGVPSRFSGSGSGTDFTLTISSLQPEDFATYYCQQYTHDPVTFGQGTKVEIKR .
0.0013

If you can, please state the reported koff value of Fab 5342 (Fab, V domains shown, Fab from E. coli; also called VH21/VL21) VH: EVQLVESGGGLVQPGGSLRLSCAASGFSLSTGGVAVGWIRQAPGKGLEWLALIDWAGDKSYSTSLKSRLTISRDNSKNTLYLQLNSLRAEDTAVYYCAREGEDAVTGDWFAYWGQGTLVTVSS VL: DIQLTQSPSSLSASVGDRVTITCQASQDIRTYLAWYQQKPGKAPKLLIYDASNRATGIPSRFSGSGSGTDFTLTISSLQPEDFATYYCQQGYSIWTFGQGTKVEIKR .
0.0061
